# tgt: NL20 human bronchial epithelial cells expressing human Z-AAT (Homo sapiens, UniProt P01009, E366K)
# Construct: doxycycline added with compounds)
# Sequence (P01009 25-418 E366K): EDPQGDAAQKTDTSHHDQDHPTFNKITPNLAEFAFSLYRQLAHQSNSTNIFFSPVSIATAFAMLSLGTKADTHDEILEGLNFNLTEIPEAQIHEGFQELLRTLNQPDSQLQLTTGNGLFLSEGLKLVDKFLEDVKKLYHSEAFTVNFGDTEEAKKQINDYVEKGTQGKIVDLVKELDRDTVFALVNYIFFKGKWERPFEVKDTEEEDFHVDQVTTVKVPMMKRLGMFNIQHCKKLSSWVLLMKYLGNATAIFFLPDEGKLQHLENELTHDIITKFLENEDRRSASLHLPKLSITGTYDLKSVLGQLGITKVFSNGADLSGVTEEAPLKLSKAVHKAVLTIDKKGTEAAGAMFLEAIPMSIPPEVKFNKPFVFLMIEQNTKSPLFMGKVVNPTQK
# method: AAT Function Assay (MSD Assay NL20-SI Cell Line)
# conditions.used: read-out: NL20 Functional EC50
pEC50: −log10 of the molar value.

{"molecule": "COC1(C(=O)O)CC(c2c(C(C)C)n(-c3ccc(F)c(C)c3)c3ccc(F)cc23)C1 (single isomer, unassigned) [Compound W10]", "pEC50": "< 5.70"}
{"molecule": "COCC(C)(C)c1c(-c2ccc(C(=O)O)s2)c2c(O)c(F)ccc2n1-c1ccc(F)c(F)c1", "pEC50": "5.70 to 6.30"}
{"molecule": "COCC(F)(F)c1c(-c2ccc(C(=O)O)cc2)c2c(O)cccc2n1-c1ccc(F)cc1", "pEC50": "< 5.70"}
{"molecule": "CO/N=C/C(C)(C)c1c(-c2ccc(C(=O)O)cc2)c2c(O)cc(F)cc2n1-c1ccc(F)c(F)c1", "pEC50": "> 6.30"}
